Target: T1, human CEACAM5 (carcinoembryonic antigen, CEA) on cells (human, UniProt P06731 35-685)
T1 construct: endogenous on MKN45 gastric adenocarcinoma cells; full-length cDNA stably transfected in the CHO-K1 clones; also called huCEACAM5; MKN45 cells
T1 sequence: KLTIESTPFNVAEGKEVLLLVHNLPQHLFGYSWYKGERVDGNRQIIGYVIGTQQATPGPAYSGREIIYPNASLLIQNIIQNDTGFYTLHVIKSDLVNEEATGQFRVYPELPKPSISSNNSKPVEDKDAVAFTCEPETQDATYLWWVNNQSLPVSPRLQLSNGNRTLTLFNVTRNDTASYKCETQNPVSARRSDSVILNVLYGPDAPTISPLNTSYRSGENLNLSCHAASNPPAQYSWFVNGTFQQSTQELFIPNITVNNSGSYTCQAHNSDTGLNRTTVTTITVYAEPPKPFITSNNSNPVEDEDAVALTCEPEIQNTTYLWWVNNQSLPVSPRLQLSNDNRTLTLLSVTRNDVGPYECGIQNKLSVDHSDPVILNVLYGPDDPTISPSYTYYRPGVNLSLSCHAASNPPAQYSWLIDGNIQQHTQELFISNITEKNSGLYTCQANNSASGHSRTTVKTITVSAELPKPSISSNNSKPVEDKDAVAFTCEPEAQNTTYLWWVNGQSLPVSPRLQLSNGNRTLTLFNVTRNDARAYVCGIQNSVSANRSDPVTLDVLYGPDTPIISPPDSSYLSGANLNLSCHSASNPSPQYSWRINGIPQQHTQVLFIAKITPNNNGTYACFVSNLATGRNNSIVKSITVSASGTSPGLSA
Assay: flow cytometry, MKN45 cells
Set-up: unit not given beside the values
PROPERTY: AUC
One number for each entry.

>>> endpoint_value("P1AE3121 (antibody, IgG1, V domains shown, huIgG1 P329G LALA; also called MFE-H28 / MFE-L24) VH: QVQLVQSGAEVKKPGASVKVSCKASGFNIKDSYMHWVRQAPGQGLEWMGWIDPENGDTEYAPKFQGRVTMTRDTSISTAYMELSRLRSDDTAVYYCNEGTPTGPYYFDYWGQGTLVTVSS VL: DIQMTQSPSSLSASVGDRVTITCRASSSVSYMHWYQQKPGKAPKLLIYSTSNLASGVPSRFSGSGSGTDFTLTISSLQPEDFATYYCQQRSSYPLTFGGGTKLEIK")
17500

With those in mind, consider the next binder.
For this binder ( P1AE3109 (antibody, IgG1, V domains shown, huIgG1 P329G LALA; also called MFE-H28 / MFE-L26) VH: QVQLVQSGAEVKKPGASVKVSCKASGFNIKDSYMHWVRQAPGQGLEWMGWIDPENGDTEYAPKFQGRVTMTRDTSISTAYMELSRLRSDDTAVYYCNEGTPTGPYYFDYWGQGTLVTVSS VL: EIQMTQSPSSLSASVGDRVTITCRASQSISSYMHWYQQKPGKAPKLLIYSTSNLASGVPSRFSGSGSGTDFTLTISSLQPEDFATYYCQQRSSYPLTFGGGTKLEIK ), measured AUC is 695
